The reported measurements were obtained from PubChem BioAssay (NCI).

- Tested on: SF-268 CNS
- test: NCI tumour cell line growth inhibition, 48 h
measurement_type: TGI

Please review the following examples before continuing.
Record summary for C=CCC1(O)c2cccc(O)c2C(=O)c2cccc(O)c21 (stereo unspecified) : reported TGI = 85.4 µM

Record summary for CC(=O)NC1CCC(NC(=O)OC(C)(C)C)C(NC(=O)OC(C)(C)C)C1 (stereo unspecified) : reported TGI = > 100 µM

Record summary for CCOC(=O)/C=C/[C@H](O[Si](c1ccccc1)(c1ccccc1)c1ccccc1)C(C)(C)C : reported TGI = > 31.6 µM

Next:
Record summary for O=C(c1ccc(Cl)cc1)N(C(=S)N1CCN(c2ccccc2)CC1)c1ccccc1 : reported TGI = > 100 µM

Record summary for O=C(c1cc(-c2cc3c(cc2C(=O)N2Cc4ccccc4C[C@H]2CN2CCOCC2)OCO3)n2c1CCCC2)N(c1ccccc1)c1ccc(O)cc1 : reported TGI = > 100 µM

Record summary for Cn1c2ccccc2n2c3ccccc3c(=S)c(C#N)c12 : reported TGI = > 100 µM

Record summary for COc1ccc(C=NC23CC4CC(CC(C4)C2)C3)cc1 : reported TGI = > 100 µM

Record summary for Nc1ccccc1Sc1ccc(Cl)cc1 : reported TGI = > 100 µM

Record summary for N#Cc1nsnc1-c1nc(-c2nsnc2C#N)nc(-c2nsnc2C#N)n1 : reported TGI = > 100 µM

Record summary for O=[N+]([O-])C(=C/C1CCCCC1)/C(=C\C1CCCCC1)[N+](=O)[O-] : reported TGI = 14.7 µM

Record summary for CC1(C)OC[C@@]2([C@@H]3CC[C@@H](C3)C2(C)C)N1O : reported TGI = > 100 µM

Record summary for CNC1NC(=O)c2ccccc2N1Cc1ccc(F)cc1 (stereo unspecified) : reported TGI = > 100 µM

Record summary for COc1cc(-c2cn(-c3ccc(Cl)cc3)c(=O)[nH]2)cc(OC)c1OC : reported TGI = > 100 µM

Record summary for CCOC(=O)c1ccc(Nc2nc3ccc(C(F)(F)F)cc3nc2-c2ccccc2)cc1 : reported TGI = > 100 µM

Record summary for OCCCN(CCc1ccc(Cl)c(Cl)c1)CCN1CCCC1 : reported TGI = > 100 µM

Record summary for CC(C)(N=NC(C)(C)C1=NCCN1)C1=NCCN1 : reported TGI = > 100 µM

###

Consider the following compounds and their measured TGI readings.
- Tested on: SK-MEL-28 melanoma
- test: NCI tumour cell line growth inhibition, 48 h
*1 amine or outer side, *2 acyl side, *3 side chain or, on linkers, in order; H or OH if unused. Where a SMILES comes first, the peptide text is derived from it. Bridges are numbered along the chain shown (N, C = ends). [ ]: non-standard residue; d: D form. The star is where a group is joined. Phe(3-Me) = Cc1cccc(C[C@H](N)C(=O)O)c1; NH(4-Cl-2-F-phenyl) = Fc1cc(Cl)ccc1N*; Pro(4R-Me) = C[C@H]1CN[C@H](C(=O)O)C1; Hyp = O=C(O)[C@@H]1C[C@@H](O)CN1; aThr = C[C@H](O)[C@H](N)C(=O)O; Pip = O=C(O)[C@@H]1CCCCN1; CO = O=C([*:1])[*:2]
Just the number in µM, nothing appended.

Record summary for O=C(/C=C/c1ccc(Cl)c(Cl)c1)CCN1CCN(CCC(=O)/C=C/c2ccc(Cl)c(Cl)c2)CC1 : reported TGI = 46.3

Please look at the following compound next.
Record summary for Cc1cccc(C[C@H](NC(=O)Nc2ccc(Cl)cc2F)C(=O)N[C@@H]2C(=O)N3C[C@H](O)C[C@H]3C(=O)N3CCCC[C@H]3C(=O)N[C@@H](C)C(=O)N3C[C@H](C)C[C@H]3C(=O)O[C@H]2C)c1 ({NH(4-Cl-2-F-phenyl)-CO}-[Phe(3-Me)][aThr][Hyp][Pip]A[Pro(4R-Me)]; ester 2-C) : reported TGI = 2.08
